Reported pKd values for a set of binders
Target: T1, hTOP1MT catalytically inactive (Y955F) (Homo sapiens, UniProt Q969P6 =DIKLIDTVDLE+51-601, Y559F;internal_change)
T1 sequence: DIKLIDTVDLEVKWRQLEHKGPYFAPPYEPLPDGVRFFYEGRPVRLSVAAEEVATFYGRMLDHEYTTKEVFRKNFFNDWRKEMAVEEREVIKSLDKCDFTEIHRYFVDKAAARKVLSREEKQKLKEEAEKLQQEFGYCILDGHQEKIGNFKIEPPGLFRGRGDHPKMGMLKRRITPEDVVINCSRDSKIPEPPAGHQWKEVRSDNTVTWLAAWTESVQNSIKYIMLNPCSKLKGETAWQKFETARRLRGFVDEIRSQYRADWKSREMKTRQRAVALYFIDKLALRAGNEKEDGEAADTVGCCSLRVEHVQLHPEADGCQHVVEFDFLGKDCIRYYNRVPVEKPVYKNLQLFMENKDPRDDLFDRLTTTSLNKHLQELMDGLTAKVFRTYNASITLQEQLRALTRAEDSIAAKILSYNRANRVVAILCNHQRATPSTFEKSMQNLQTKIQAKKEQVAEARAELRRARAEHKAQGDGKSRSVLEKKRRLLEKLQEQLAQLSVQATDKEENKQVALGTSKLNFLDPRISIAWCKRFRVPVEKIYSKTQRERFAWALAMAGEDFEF
Test: fluorescence anisotropy; 20 mM Tris pH 8, 66 mM NaCl, 1 mM DTT, 2% glycerol, 0.5 nM DNA, 0-60 nM TOP1, 10 min at 37 C; errors are SEM of 3-5 experiments
Conditions: protein: recombinant; tags: GST tag removed by 3C protease; label: 5'-FAM on strand 1; blunt
Lab note — pKd values are minus log10 of concentrations in M.

INSERT INTO measurements (binder, assay_metric, test_value) VALUES
  ('Substrate C (dsDNA) DNA 1: ACTCGTCACGAGAGAGATGCCACGGTATTTCAAA DNA 2: TTTGAAATACCGTGGCATCTCTCTCGTGACGAGT', 'pKd', 8.33);

Value of measured pKd for the entry Substrate A (dsDNA) DNA 1: AGCGTTGAAGATATGTGGCAAAACCTTTGT DNA 2: ACAAAGGTTTTGCCACATATCTTCAACGCT : 8.08

Measured pKd, Substrate D (rG upstream of cleavage site) (dsDNA, single ribonucleotide rG at position 16 of strand 1; all else DNA) DNA 1: ACTCGTCACGAGAGAGATGCCACGGTATTTCAAA DNA 2: TTTGAAATACCGTGGCATCTCTCTCGTGACGAGT : 8.34

Every entry's value here was drawn from paper PMC12143597.
